Parameter: % inhibition Apo pol 5'. Scope: all listed entries.
target: P. falciparum apicoplast DNA polymerase (Pf-apPOL) (Plasmodium falciparum, UniProt Q8ILY1); assay: Fluorescence-based high-throughput DNA polymerase assay (molecular beacon), primary screen and dose-response; type: biochemical; conditions: DRC-2; 5'; concentration 10
Sequence (Q8ILY1 entry or part of it): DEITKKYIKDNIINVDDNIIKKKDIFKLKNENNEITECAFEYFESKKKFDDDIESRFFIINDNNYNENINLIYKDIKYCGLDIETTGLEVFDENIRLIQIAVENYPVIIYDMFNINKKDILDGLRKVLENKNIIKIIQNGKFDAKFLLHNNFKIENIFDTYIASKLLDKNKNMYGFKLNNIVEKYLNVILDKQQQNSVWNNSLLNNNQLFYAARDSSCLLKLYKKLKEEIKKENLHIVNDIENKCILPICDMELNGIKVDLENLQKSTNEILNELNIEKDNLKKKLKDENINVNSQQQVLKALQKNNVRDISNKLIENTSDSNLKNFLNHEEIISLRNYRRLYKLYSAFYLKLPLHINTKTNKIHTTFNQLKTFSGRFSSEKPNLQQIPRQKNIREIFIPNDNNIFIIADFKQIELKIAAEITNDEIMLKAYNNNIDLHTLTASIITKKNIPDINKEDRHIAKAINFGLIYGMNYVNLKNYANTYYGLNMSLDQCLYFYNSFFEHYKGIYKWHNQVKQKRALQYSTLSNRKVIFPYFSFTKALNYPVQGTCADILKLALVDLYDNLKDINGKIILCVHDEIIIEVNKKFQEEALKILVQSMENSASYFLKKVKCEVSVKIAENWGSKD

compound	% inhibition Apo pol 5' (%)
CC(C)(C)c1cc(C(=O)C(C#N)=NNc2cccc(Cl)c2)no1	30
O=C(O)CCS(=O)(=O)c1ccc(-c2ccc(S(=O)(=O)CCC(=O)O)cc2)cc1	39
COc1ccc2c(c1)C(c1ccccc1OC)CC(=O)O2 (stereo not drawn)	41

====

Target: bacteriophage T4 DNA polymerase (Enterobacteria phage T4)
Construct: made in house
Sequence (P04415 1-898): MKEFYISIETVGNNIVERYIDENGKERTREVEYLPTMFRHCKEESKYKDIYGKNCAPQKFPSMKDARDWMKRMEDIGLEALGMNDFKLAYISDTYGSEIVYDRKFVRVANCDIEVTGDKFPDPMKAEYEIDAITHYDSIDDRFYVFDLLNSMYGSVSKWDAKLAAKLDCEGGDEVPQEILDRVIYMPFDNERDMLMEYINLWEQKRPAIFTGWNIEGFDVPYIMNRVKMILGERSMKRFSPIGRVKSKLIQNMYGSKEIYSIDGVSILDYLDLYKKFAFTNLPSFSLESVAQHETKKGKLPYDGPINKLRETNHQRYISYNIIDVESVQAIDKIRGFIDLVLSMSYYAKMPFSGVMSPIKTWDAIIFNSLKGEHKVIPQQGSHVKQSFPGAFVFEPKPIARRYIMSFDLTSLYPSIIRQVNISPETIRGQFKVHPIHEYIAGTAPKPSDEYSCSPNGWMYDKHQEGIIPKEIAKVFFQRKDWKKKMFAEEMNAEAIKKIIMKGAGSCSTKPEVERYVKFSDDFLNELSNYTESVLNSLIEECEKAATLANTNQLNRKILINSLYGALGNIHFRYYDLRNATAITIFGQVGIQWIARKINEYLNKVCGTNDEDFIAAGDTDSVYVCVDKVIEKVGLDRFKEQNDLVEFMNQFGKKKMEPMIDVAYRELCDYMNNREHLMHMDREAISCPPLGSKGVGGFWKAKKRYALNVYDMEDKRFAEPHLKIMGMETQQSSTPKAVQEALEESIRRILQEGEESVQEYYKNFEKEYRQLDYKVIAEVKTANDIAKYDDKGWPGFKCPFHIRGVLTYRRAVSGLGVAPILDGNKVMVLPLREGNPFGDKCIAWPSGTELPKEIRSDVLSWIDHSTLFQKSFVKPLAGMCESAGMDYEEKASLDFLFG
Assay: Counter-screen against bacteriophage T4 DNA polymerase
Type: biochemical
Conditions: DRC-2; read at 10'; concentration 80
Attribute: % inhibition T4 10' 80

molecule	target.or.test.system	% inhibition T4 10' 80 / %
Cc1cccc(-c2noc(C(=O)NNC(=O)C(Cl)(Cl)Cl)n2)c1	bacteriophage T4 DNA polymerase (Enterobacteria phage T4)	-4.34
Cc1ccsc1Cn1c(C)ccc1C	bacteriophage T4 DNA polymerase (Enterobacteria phage T4)	7.37
COc1ccccc1CC(=O)N1CCc2c(nc3cc(-c4ccccc4Cl)[nH]n3c2=O)C1	bacteriophage T4 DNA polymerase (Enterobacteria phage T4)	-54
N#Cc1c(O)nc(N2CCCCC2)nc1-c1ccc2c(c1)OCO2	bacteriophage T4 DNA polymerase (Enterobacteria phage T4)	-1.89
Cc1cc2[nH]c(C(=O)Nc3ccc(F)cc3)c(CN3CCOCC3)c2s1	bacteriophage T4 DNA polymerase (Enterobacteria phage T4)	25
CC(C)CC(C(=O)O)N1C(=O)C2C3C=CC(C2C1=O)C1C(=O)N(C(CC(C)C)C(=O)O)C(=O)C31 (stereo not drawn)	bacteriophage T4 DNA polymerase (Enterobacteria phage T4)	55

Values from paper PMC9090415
